B1: Twister Ribozyme (parent)
chain: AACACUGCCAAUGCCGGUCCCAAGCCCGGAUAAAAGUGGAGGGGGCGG

variants of: B1; assay: self-cleavage, relative activity (ratio to wild type); higher = more cleavage; co-transcriptional
// label = 1.0 if self-cleavage is not less than 0.2, otherwise 0.0

>>> category_label("AACACUGCCAAUGCCGGUCCCAAGCCGGGAUAAUAGUGGAGGGGGCGG [C27G A34U]")
0.0
>>> category_label("AACACUGCCAAUGCCGGUCCCAAGCCCGGAUAACAGUGGAGGGGGUGG [A34C C46U]")
1.0
>>> category_label("AACACUGCCAAUGCCGGUCCCAAGCCCGGAUGAAAGUGGAGGGGGCGG [A32G]")
1.0
>>> category_label("AACACUGCCAAUGCCGGUCCCAAGCCCGGAUAAAACUGAAGGGGGCGG [G36C G39A]")
0.0
>>> category_label("AACACUGCCAAUGCCGGUCCCACGCCCGGAUAAAAGUCGAGGGGGCGG [A23C G38C]")
1.0
>>> category_label("AACACUGCCAAUGCCGGUCCCAAGCCCGGAUAAAAGUGGAGCGGGCGG [G42C]")
1.0
>>> category_label("AACACUGCCAAUGCCGGUCCCAAGCCCGGAUAAAAGGUGAGGGGGCGG [U37G G38U]")
0.0
>>> category_label("AACACUGCCAAUGCCGGUCCCAAGCCUGGUUAAAAGUGGAGGGGGCGG [C27U A30U]")
1.0
>>> category_label("AACAAUGCCAAUGCCGGUCCCAAGCCCGGAUAAAAGUGGAGGGGGCAG [C5A G47A]")
1.0
>>> category_label("AACACUGACAAUGCCGGUCCCAAGCCCGGAUAGAAGUGGAGGGGGCGG [C8A A33G]")
1.0
>>> category_label("AACACUGCCAAUGCCGGUCCCAAGCUCGGAUAAAAGUGGAGGAGGCGG [C26U G43A]")
0.0
>>> category_label("AACACUUCCAAUGCCGGUCACAAGCCCGGAUAAAAGUGGAGGGGGCGG [G7U C20A]")
0.0
>>> category_label("AACACUGCCAAUGCCGGUCGCAAGCCCUGAUAAAAGUGGAGGGGGCGG [C20G G28U]")
1.0
>>> category_label("AACAAUGCCAAUGCAGGUCCCAAGCCCGGAUAAAAGUGGAGGGGGCGG [C5A C15A]")
1.0
>>> category_label("AACACUGCCAAUGCCGGUCCCACGCCCGGAUAAAAGUGGAGGGGGCAG [A23C G47A]")
0.0
>>> category_label("AACACUGCCAAUGCCGGUCCCAAGCCCGCAUAAAAGUGGCGGGGGCGG [G29C A40C]")
0.0
>>> category_label("AACAGUGCCAAUGCCGGUCCCAAUCCCGGAUAAAAGUGGAGGGGGCGG [C5G G24U]")
0.0
>>> category_label("AACACUGCCAGUGCCGGUCCCAAGCCCGGAUAAGAGUGGAGGGGGCGG [A11G A34G]")
1.0
>>> category_label("AACACUGCCAAUUCCGGUCCCAGGCCCGGAUAAAAGUGGAGGGGGCGG [G13U A23G]")
0.0
>>> category_label("AUCACUGCCAAUGCCCGUCCCAAGCCCGGAUAAAAGUGGAGGGGGCGG [A2U G16C]")
0.0
>>> category_label("AACACUGGCAAUGCCGGGCCCAAGCCCGGAUAAAAGUGGAGGGGGCGG [C8G U18G]")
0.0
>>> category_label("AACACUGCCAAUGCCGGUCCCAAGCCCGGAUAUAGGUGGAGGGGGCGG [A33U A35G]")
1.0
